Measured values drawn from patent US20220040158A1 for this set.

assay: Phase I oral single ascending dose study of AZD0328 in healthy volunteers (safety, tolerability, pharmacokinetics); format: in vivo, human; details: human, plasma; healthy volunteers, oral single dose 0.075 mg, cohort geometric mean; read-out: tmax
METRIC: tmax (h)
Form entry: value (h) — number only.

Query: Find the measured tmax of c1cnc2c(c1)C[C@@]1(CN3CCC1CC3)O2 [AZD0328] and report it.
Reply: 1.59

---

assay: Phase I oral single ascending dose study of AZD0328 in healthy volunteers (safety, tolerability, pharmacokinetics); assay type: in vivo, human; conditions: human, plasma; healthy volunteers, oral single dose 1.35 mg, cohort geometric mean; read-out: tmax
METRIC: tmax (h)
Form entry: value (h) — number only.

Query: Find the measured tmax of c1cnc2c(c1)C[C@@]1(CN3CCC1CC3)O2 [AZD0328] and report it.
Reply: 2.95
